system: HOP-92 NSCLC; test: NCI tumour cell line growth inhibition, 48 h
reported-endpoint: TGI (µM)
Give the value, in units of µM, as a plain number.

molecule: CC[C@@]1(C)CCC2c3ccc(O)cc3CC[C@H]2C1C (some centres undefined)
quantity-unit: µM
TGI: 19.5

Let us examine a further case.
*Q* Param item = Oc1ccc(-c2nc3ccccc3s2)cc1CN(Cc1ccccn1)Cc1ccccn1 ; retrieve measured TGI.
*A* 36.7

----------
test system: MDA-MB-231 breast; assay: NCI tumour cell line growth inhibition, 48 h; in the data active means GI50 below about 0.43 µM; inactive means the rest
# valid calls are active, inactive; nothing else

Solved entries (count: 10):
compound: O=C(c1ccccc1)C1OC1c1ccc([N+](=O)[O-])cc1 (centres undefined)
class-assignment: inactive

compound: O=C(Nc1ccc(-n2ccc3c(NC(=O)c4ccccc4)ncnc32)cc1)Nc1ccc(Cl)c(Cl)c1
class-assignment: inactive

compound: Clc1ccc(-c2c3c(nn2-c2ccccn2)CCc2ccccc2-3)cc1Cl
class-assignment: inactive

compound: CC(=O)C1=C(O)C=C2Oc3c(C(=O)/C=C/c4c(Cl)cccc4Cl)c(O)c(C)c(O)c3[C@]2(C)C1=O
class-assignment: inactive

compound: O=Nc1ccc(NO)c2ccccc12
class-assignment: inactive

compound: C[As](C)SCC(COC(=O)C(Cl)c1ccccc1)OC(=O)C(Cl)c1ccccc1 (centres undefined)
class-assignment: inactive

compound: CC(C)(C)c1cc(-n2c(-c3ccc(Cl)cc3)nc3cc(C(=O)Nc4ccc(Cl)cc4)ccc32)n[nH]1
class-assignment: inactive

compound: O=C(NCCCO)c1cc(Cl)ccc1O
class-assignment: inactive

compound: Nc1c(C(=O)Nc2cccc(F)c2)sc2nc3c(cc12)C(=O)CCC3
class-assignment: inactive

compound: Cc1cc(N2CCOCC2)nc(N[C@@H]2CCC[C@H](Nc3ccnc4cc(Cl)ccc34)C2)n1
class-assignment: inactive

*Q* GET /call?item= COc1cccc(NC(=O)c2sc3nc(C)c(C(O)c4ccccc4)cc3c2N)c1 (centres undefined) returns the recorded outcome of this test.
*A* active

*Q* Just curious, what result did CCC(=C/[C@H](C)C/C=C/C(C)=C/[C@@H](C)C(=O)[C@@H](C)[C@H](O)[C@@H](C)CC)/C=C/[C@@H]1OC(=O)C=C[C@H]1C get here?
*A* active

*Q* Any idea what this test logged for CC(=O)c1c(C)[nH]c(-c2nc3ccc(N4CCN(C)CC4)cc3[nH]2)c1-c1ccc(N(C)C)cc1 ?
*A* inactive

*Q* What outcome does the record of this test show for O=C(Cc1ccc(F)c(F)c1)Nc1cc(C2(C(F)(F)F)CC2)nn1Cc1ccccc1 ?
*A* inactive
